Just for reference, the supplement of paper PMC9170038 is where these values come from.

# Tested on: K4 kissing-loop RNA reporter
# procedure.text: apparent KD of K4 kissing-loop reporter; higher = weaker reporter binding
# condition.summary: Eterna round: R107; input ligand: FMN 200 uM
Below, each of the sequences is paired with its reported apparent KD of K4 kissing-loop reporter value.
Give the number; nM is assumed, so skip it.

Consider the reported apparent KD of K4 kissing-loop reporter for these sequences:
[[record]]
sequence_text = "GGAGGGAUCUCGGCCGCCACUCAUAAGAAAUGAACCUAAGAAAUAUAGUGAUGUUAUAUAAAGAAGAGGACCGGGAGAAAGGAGG [ExTryptoB.A]"
numeric_result = 148

[[record]]
sequence_text = "UCCUAGGCUCGAAAGAGCCUAGGUAAGACUCAGGAUAUCUGGAAACAGAGAAGGGAGCUACUAGUGAUGUUAGGAAUUCCCAUUU"
numeric_result = 116

[[record]]
sequence_text = "GGUAGCAUGGCGGCCGCCACUUCAAUUGGAGUGAUGUUCCAAGGCAUCGCGAAAGCGAUGCCAGGAAGGACCGGGCCAUGCUACC"
numeric_result = 271


Entry UAAUUUAUGUCUUUAAUAUAAUAAUCAGAUACCAGUGAUUAAUGACACCCUUGGCAGCUGUAUAGAGUGAUGUUCUUAUGCUUAA [JR_ExcTheophyA_Sub010] has what apparent KD of K4 kissing-loop reporter?
245

====

# System: K4 kissing-loop RNA reporter
# procedure.text: apparent KD of K4 kissing-loop reporter; higher = weaker reporter binding
# condition.summary: Eterna round: R107; input ligand: FMN 200 uM
Below, each of the sequences is paired with its reported apparent KD of K4 kissing-loop reporter value.

Consider the reported apparent KD of K4 kissing-loop reporter for these sequences:
[[record]]
sequence_text = "CGCCGCAAGGCGAGCGCUCCCACUCCGGAAGGAGCGCCCGUAAGGGCAGGUAGGUCGCCGGAGUGAUGUUCCGGUGGAGGGCUCG [#2 Exclusion - Arginine A Attempt #14 (Inspired by Omei)]"
measured_parameter = "apparent KD of K4 kissing-loop reporter"
result = "226 nM"

[[record]]
sequence_text = "UAUGUACGCGGGUAACGGUACAUCGAGGAAGGAGCGUGCGCAGGCACAGGUAGGUCGCCUCAGCGCACGAGUGAUGUUCGUGGGC [Rere]"
measured_parameter = "apparent KD of K4 kissing-loop reporter"
result = "221 nM"


Entry UUCAGUGACAUACGAGUGAUGUUCGUAAUACGAGGACCGGUACGGCCGCCACUCGCACGUCGGCAGUUUGUUCAUGCAUCAGACU has what apparent KD of K4 kissing-loop reporter?
226 nM

====

Below, each of the sequences is paired with its reported apparent KD of K4 kissing-loop reporter value.
# Tested on: K4 kissing-loop RNA reporter
# procedure.text: apparent KD of K4 kissing-loop reporter; higher = weaker reporter binding
# condition.summary: Eterna round: R107; input ligand: FMN 200 uM
A complete answer gives the number and then names the unit.

[[record]]
sequence_text = "GUUACGCAUGGAAGGAGCGCUCUCCGGUUGAUUGACACAGUGAUGUUGUGAUUCUACCGUAAGCAGGUAGGUCGCCAUGUGUAAC [Ex Arginine B K4 13]"
measured_on = "K4 kissing-loop RNA reporter"
result = "950 nM"

[[record]]
sequence_text = "UUUCGUAGAAGUGAUACCAGACUGGAAAGUGAUGUUUUCCAAUUAUUUAAAUCCUUAUCUGUCCCUUGGCAGCACAGUUUAUUUA [JR_Nu_ExcTheophyB_Sub027]"
measured_on = "K4 kissing-loop RNA reporter"
result = "71.8 nM"

[[record]]
sequence_text = "CCCAAAAUAUGCAGUGAUGUUGCAACUGAUACCAGUAUCGAAAGAUACCCUUGGCAGCGGAAAACCGCUACGUAAUUUAAAAGGG [Ex Theophylline A K4 18]"
measured_on = "K4 kissing-loop RNA reporter"
result = "200 nM"

[[record]]
sequence_text = "UUACGGUCCUCGGCCGCCACUCAUAGUGAUGUUAUGCUGCCUGAAGGCACCGGACCUGGAUAUCAGAGGACCGGGAGGCCAUUCG [theeternabot_exclusion_KL_Trp_B_6]"
measured_on = "K4 kissing-loop RNA reporter"
result = "793 nM"

[[record]]
sequence_text = "UGACUACAUCCUAGUGAUGUUUAGGAUAUGUAGGAUAUGCUGAUAAGCAGAAGGACAGAAGGAAGUGAUGUUCUUAAAGUAGUCU [FmnAX 29 #DoubleAptamer #Double K4 #SwitchBubble #StaticStem]"
measured_on = "K4 kissing-loop RNA reporter"
result = "644 nM"

[[record]]
sequence_text = "AUCUGGUUGGGCGAUACCAGUUUGGCAUAGUGAUGUUAUGCAACGCUCAGUGCAAGGCCAAACCCUUGGCAGCGCACAUCCUUUC [theeternabot_exclusion_KL_Theo_B_3]"
measured_on = "K4 kissing-loop RNA reporter"
result = "128 nM"


Entry UGAUAGGACAGAAGGAGCGGUAGUGAUGUUACCAAAAGUAUAAGGUGUCAAAAGACACCCUACCAGGUAGGUCGCUGUCCUAUCU has what apparent KD of K4 kissing-loop reporter?
292 nM

And what about the sequence CAUAGGAAACUAUGUUUCUCUCUGACUGAAGGAGCGCGUGAAAACGCAGGUAGGUCGCAGAAUUUAACAGAGAGUGAUGUUCUCA [Ex Arginine A K4 12] ?
457 nM

And what about the sequence UGUCAUUGGUCGGCCGCCACUUUAUAUGGAGUGAUGUUUUGUAGAUUGUGUUGAAAGGUGUGGUGAAGGACCGGGACCGAUGACU [FiskerMod 25 - Jieux - Same State - Tryptophan B] ?
803 nM

And what about the sequence CGUAGUUGGGCGGCCGCCACUUGAACAGCUUUGCCAAAGGCAGAGCUCUAGAGUGAUGUUCUGGCAAGGACCGGGUCCAACUACA [#02 K4 Tryptophan B Same State] ?
1270 nM

And what about the sequence AUUAAUAACAGAGGAUAUGCAUUUUUAUUAUUUUUUAUUAUUAUAUGCAGUGAUGUUGCAUAUUAAGCAGAAGGCUGAUUUAUUU [JR_SSFMNB_Sub013] ?
117 nM

====

# Test system: MS2 coat protein
# procedure.text: apparent KD of MS2 coat protein; designed switch direction (-1 OFF switch, 1 ON switch): -1; higher = weaker reporter binding
# condition.summary: Eterna round: R95; input ligand: FMN 200 uM
measured.parameter: apparent KD of MS2 coat protein
A complete answer gives the number and then names the unit.

Consider the reported apparent KD of MS2 coat protein for these sequences:
[[record]]
sequence_text = "GCCAGAGCAGGAUAUUUAUAUUAUCACAUGAGGAUCACCCAUGUCCAGCGAAAGCUGGAGGGAGAAGGGCUCUGGC [Fiskers Ex 5 - 25] (puzzle: Exclusion 5)"
measured_parameter = "apparent KD of MS2 coat protein"
result = "121 nM"

[[record]]
sequence_text = "AAGUACUACAAGCUUAGGGACAUGAGGAUCACCCAUGUUCGUCUUAUUGAUCUAGGUACGCUGACGUACCUAGAUCA [Mat - Sensor v3 - turn-off var 1 - JL Mod - D10] (puzzle: Sensor v3, turn-off variant 1)"
measured_parameter = "apparent KD of MS2 coat protein"
result = "16.2 nM"


Entry UAUUAACAAGCAAGGUCCCACAUGAGGAUCACCCAUGUGCUCGUCUUAUAAGGUACUGUGACGAAAGUCACGGUACC [Sensor 3, v1 - 81] (puzzle: Sensor v3, turn-off variant 1) has what apparent KD of MS2 coat protein?
32.4 nM

And what about the sequence AAAUACAAGCAGAGAUCCUACAUGAGGAUCACCCAUGUGCUCGUCUUAUAAAGUACUAUCACGAAAGUGAUAGUACA [Sensor 3, v1 - 17] (puzzle: Sensor v3, turn-off variant 1) ?
184 nM

And what about the sequence CGUUCUCGAGUCAGGAUAUCGACUAAUUCCCAAGUCGAGAAGGGACAUGAGGAUCACCCAUGUAAAGAAAAGAA [Ainteedle] (puzzle: Brourd's mod of Exclusion 4) ?
118 nM

====

# Test system: K4 kissing-loop RNA reporter;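 also: bound reporter read as fluorescence of individual clusters on recovered sequencing chips by microscopy, with normalized cluster intensities fitted with a binding model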
# procedure.text: apparent KD of K4 kissing-loop reporter; higher = weaker reporter binding
# condition.summary: Eterna round: R107; input ligand: none
measured.parameter: apparent KD of K4 kissing-loop reporter (nM)
Give the number; nM is assumed, so skip it.

Consider the reported apparent KD of K4 kissing-loop reporter for these sequences:
[[record]]
sequence_text = "AGGGUUUAACACGAUACCAGCCUGGAGGCCAGUGAUGUUGGCCGAUUUGAACAGAAUUAAGGCCCUUGGCAGCGUCUUUAAAACC [Biarat]"
measured_parameter = "apparent KD of K4 kissing-loop reporter"
unit_label = "nM"
numeric_result = 167

[[record]]
sequence_text = "UGUGUGUAGGGAAGGAGCGCCGAGAGAAGAAGAAAAGAGUGAUGUUCAAGACAAUAAAGACGGCAGGUAGGUCGCCCUGUGUGUG [Default title]"
measured_parameter = "apparent KD of K4 kissing-loop reporter"
unit_label = "nM"
numeric_result = 516


Next item in the queue.
Entry UCGGCAAAGUCGGCCGCCACUCCGGGCCCUAUAAAUGGGCGCAGUGAUGUUGCGGCUAGGCCUCUGAGGACCGGGACUUUGUAGA [Gebive] has what apparent KD of K4 kissing-loop reporter?
112
